The reader will find reported remaining activity at 1 µM values listed item by item below.
system_name: panel of 442 kinases (Homo sapiens, UniProt P0C264)
Construct: purchased Ambit Biosciences (scanMAXX KINOMEscan)
Sequence (P0C264 whole entry): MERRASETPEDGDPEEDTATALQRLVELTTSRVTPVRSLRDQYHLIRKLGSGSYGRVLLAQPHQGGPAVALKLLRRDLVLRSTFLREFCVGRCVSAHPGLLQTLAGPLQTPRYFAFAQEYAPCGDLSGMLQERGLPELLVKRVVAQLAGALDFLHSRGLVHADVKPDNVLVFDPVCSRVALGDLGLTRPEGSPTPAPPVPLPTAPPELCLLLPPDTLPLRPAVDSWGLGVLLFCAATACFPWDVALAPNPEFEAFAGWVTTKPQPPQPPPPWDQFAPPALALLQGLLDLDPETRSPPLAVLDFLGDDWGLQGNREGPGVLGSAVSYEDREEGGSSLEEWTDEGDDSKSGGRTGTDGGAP
measurement_protocol: biochemical
Type: binding
conditions: kinase SgK110; 1 µM; read-out: SgK110 (% of control at 1 µM)
Kindly answer with a numeric value in %, unit omitted.

// below: answered molecules
molecule: COc1ncc(-c2ccc3nccc(-c4ccnnc4)c3c2)cc1NS(=O)(=O)c1ccc(F)cc1F [Omipalisib]
result_units: %
remaining activity at 1 µM: 100
--
molecule: FC(F)c1nc2ccccc2n1-c1nc(N2CCOCC2)nc(N2CCOCC2)n1 [ZSTK474]
result_units: %
remaining activity at 1 µM: 100
--
molecule: Cn1c(=O)n(-c2ccc(C(C)(C)C#N)cc2)c2c3cc(-c4cnc5ccccc5c4)ccc3ncc21 [Dactolisib]
result_units: %
remaining activity at 1 µM: 100

Please turn your attention to the following entry.
Ask: Can you share its remaining activity at 1 µM? I mean this molecule: Nc1cc(C(F)(F)F)c(-c2cc(N3CCOCC3)nc(N3CCOCC3)n2)cn1 [Buparlisib]
Result: 91
